Assay: Partition coefficient was determined in oil/gas system and value was reported
Format: ADME
quantity_name: Partition coefficient

FC(F)OC(F)(F)C(F)Cl (centres undefined): 98

A = FC(F)OC(Cl)C(F)(F)F (centres undefined)
B = FC(F)(F)C(Cl)Br (centres undefined)
C = COC(F)(F)C(Cl)Cl
Would you mind ranking these compounds by ascending Partition coefficient? Could you list the labels in the order requested? A, B, C
